assay: NCI Yeast Anticancer Drug Screen. Data for the mec2-1 strain (AID 157); details: S. cerevisiae mec2-1 strain, at 50.0 µM, stronger effect = higher value
The panel holds about 79,000 compounds, 15% with a hit somewhere; the sample as a whole holds those more often.
The following compounds are shown together with reported growth inhibition values.
Your answer is read as %, so omit the unit and give the number.

// worked examples, growth inhibition included
{"compound": "CCCCOP(=O)(OCCCC)SCl", "growth inhibition / %": 1.7}
{"compound": "CC(=O)CC(C)=O", "growth inhibition / %": 3.8}
{"compound": "C[N+]1=C(c2cccnc2/C=N/O)OCC1(C)C", "growth inhibition / %": -19.4}
{"compound": "Cc1nnn[n-]1.N.N.N.N.N.[Cl-].[Co+3]", "growth inhibition / %": -6.95}
{"compound": "CC(C)N[C@@H]1CCC[C@H]1O", "growth inhibition / %": -0.1}

Prompt line: Look up growth inhibition for this compound: O=C1c2ccccc2C(=O)N1N1CC1c1ccccc1 (configuration not stated)
Response line: -36.1

Prompt line: // next record N#CS.N=C=S.O=N[O-].[Co+3].[NH-]CC[NH-].[NH-]CC[NH-]
Response line: 6.3

---

test: NCI Yeast Anticancer Drug Screen. Data for the sgs1 mgt1 strain (AID 161);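 further: 0% = growth of cultures given vehicle only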; conditions: S. cerevisiae sgs1 mgt1 strain, at 50.0 µM, stronger effect = higher value
This is part of a sample that, as a whole, favours compounds with a hit. Of some 79,000 tested, about 15% had one in any assay. Calls of active or inactive are those of the source. Rule as the data show it: active = growth inhibition above about 70%; inactive = the rest.
The following compounds are shown together with reported growth inhibition values.

// worked examples, growth inhibition included
{"compound": "CCCCOP(O)(=S)OCCCC.[Y]", "reported": "4.2% (inactive)"}
{"compound": "N#CS.N=C=S.O=N[O-].[Co+3].[NH-]CC[NH-].[NH-]CC[NH-]", "reported": "8.25% (inactive)"}
{"compound": "CC(=O)Cc1ccc(C)cc1", "reported": "-29.5% (inactive)"}
{"compound": "CCCn1cc2c3c(cccc31)[C@H]1C[C@@H](C)CN(C)[C@@H]1C2", "reported": "41% (inactive)"}
{"compound": "Nc1ccc(N)cc1", "reported": "-23.7% (inactive)"}
{"compound": "Oc1ccccc1I", "reported": "-57% (inactive)"}
{"compound": "COC(=O)c1c(C(=O)OC)c1=[N+]=[N-]", "reported": "-0.95% (inactive)"}
{"compound": "COc1ccc(C(C)(C)CC(C)(C)C)cc1", "reported": "32.8% (inactive)"}
{"compound": "CC12CC/C(=N/NC(=O)Cc3c[nH]c4ccccc34)C=C1CCC1C2CCC2(C)C(OC(=O)c3ccccc3)CCC12 (stereo not drawn)", "reported": "24.1% (inactive)"}
{"compound": "CCOC(=O)CC(=O)CCl.[Cu+2]", "reported": "-40.4% (inactive)"}

Prompt line: Look up growth inhibition for this compound: O=P(O)(O)c1ccccc1
Response line: 8.85% (inactive)

Prompt line: // next record COc1ccc2[nH]c3c(c2c1)CCNC3C (stereo not drawn)
Response line: 2.6% (inactive)

Prompt line: // next record CCCCCCCCCCC(C(=O)c1ccccc1)N1CCOCC1 (stereo not drawn)
Response line: 10.9% (inactive)

---

test: NCI Yeast Anticancer Drug Screen. Data for the mlh1 rad18 strain (AID 175); details: S. cerevisiae mlh1 rad18 strain growth inhibition; at 50.0 µM; stronger effect = higher value
The panel holds about 79,000 compounds, 15% with a hit somewhere; the sample as a whole holds those more often. Active and inactive are the calls of the source. Cut-off read from the data, not from the text of the source: active = growth inhibition above about 70%; inactive = the rest.
quantity-name: growth inhibition

{"compound": "Nc1ccc2c(c1)Oc1ccc(N)cc1O2", "growth inhibition": "5.15% (inactive)"}
{"compound": "CCCCCCCCSP(SCCCCCCCC)SCCCCCCCC", "growth inhibition": "0.9% (inactive)"}
{"compound": "O=[N+]([O-])c1cc([As](=O)(O)O)ccc1S(=O)(=O)O", "growth inhibition": "2.2% (inactive)"}
{"compound": "COc1ccc(N=NC(=O)NC(CC(C)C)C(=O)NC(C)C(=O)O)cc1 (stereo not drawn)", "growth inhibition": "5.15% (inactive)"}
{"compound": "CC(C)COP(=O)(Cc1ccccc1)OCC(C)C", "growth inhibition": "-6.2% (inactive)"}

Moving on to the next compound.
Prompt line: Look up growth inhibition for this compound: CC(C)NC(=O)C(Cl)CCl (stereo not drawn)
Response line: 6.7% (inactive)
